Recorded inhibition at 10 µM values for a group of molecules are listed next.
System: OVCAR-3
procedure-summary: NCI-60 one-dose screening
Format: cell-based
stated-conditions: Homo sapiens, OVCAR-3, 10 μM; OVCAR-3, Ovarian Cancer; read-out: GI (%)
# output: bare number, implied unit %

Example molecules with recorded inhibition at 10 µM:
COc1ccc(COc2ccc(/C=C3/C(=O)Nc4ccc(Cl)cc43)cc2OC)cc1	-1.86
COc1cc(/C=C2/C(=O)Nc3cc(Cl)ccc32)ccc1OCc1ccc(F)cc1	-1.69
COc1cc(/C=C2/C(=O)Nc3ccccc32)ccc1OCc1ccc(Cl)cc1	-5.51

Consider "COc1ccc(COc2ccc(/C=C3/C(=O)Nc4cc(Cl)ccc43)cc2OC)cc1" . Its measured inhibition at 10 µM is -5.39

Consider COc1cc(C=C2C(=O)Nc3ccc(Cl)cc32)ccc1O (mixture of isomers) . Its measured inhibition at 10 µM is 25.8

Consider COc1cc(C=C2C(=O)Nc3ccccc32)ccc1OCc1ccccn1 (mixture of isomers) . Its measured inhibition at 10 µM is 0.9

Consider COc1cc(C=C2C(=O)Nc3ccccc32)ccc1OCc1ccccc1 (mixture of isomers) . Its measured inhibition at 10 µM is 11

Consider COc1cc(C=C2C(=O)Nc3ccccc32)ccc1O (mixture of isomers) . Its measured inhibition at 10 µM is 19.4

Consider "COc1cc(/C=C2/C(=O)Nc3cc(Cl)ccc32)ccc1OCc1ccccc1" . Its measured inhibition at 10 µM is -3.45

Consider "COc1cc(/C=C2/C(=O)Nc3ccccc32)ccc1OCc1ccc(F)cc1" . Its measured inhibition at 10 µM is -16.7

Consider "COc1cc(/C=C2/C(=O)Nc3cc(Cl)ccc32)ccc1OCc1ccccn1" . Its measured inhibition at 10 µM is -15.5

###

procedure-summary: iCELLigence real-time cell analysis
Type: cell-based, human
stated-conditions: human, MCF-12A cells; MCF-12A; 100 μM; 48 h; relative to control; read-out: cell viability (% ± SEM)
metric: viability at 48 h, 100 µM (%)
# output: bare number, implied unit %

Consider COc1cc(C=C2C(=O)Nc3ccc(Cl)cc32)ccc1OCc1ccccn1 (mixture of isomers) [6j] . Its measured viability at 48 h, 100 µM is 67.3

###

Test system: MDA-MB-231/ATCC
procedure-summary: NCI-60 one-dose screening
Format: cell-based
stated-conditions: Homo sapiens, Breast Cancer, read-out: GI (%)
metric: inhibition at 10 µM (%)
# output: bare number, implied unit %

Consider "COc1cc(/C=C2/C(=O)Nc3cc(Cl)ccc32)ccc1OCc1ccccc1" . Its measured inhibition at 10 µM is 8.09

###

Tested on: UACC-257
procedure-summary: NCI-60 one-dose screening
Assay type: cell-based
stated-conditions: Homo sapiens, UACC-257, Melanoma, read-out: GI (%)
Experimental: Compounds 5a–c and 6a–o were tested using standard NCI protocols for in vitro activity at the National Cancer Institute (NCI, Bethesda, Maryland, USA), wherein compounds were tested using one single concentration of 10 μM against 60 cell lines of nine different cancer types. […] Excellent activity was observed against a single NSCLC cell line, EKVX, for compounds 5a–c (GIs = 77–86%, Table 1) with no observed activity for indoles with substituted vanillin 6a–o. […]
metric: inhibition at 10 µM (%)
# output: bare number, implied unit %

COc1cc(C=C2C(=O)Nc3ccccc32)ccc1O (mixture of isomers) [5a]	11.3
COc1cc(C=C2C(=O)Nc3ccc(Cl)cc32)ccc1OCc1ccc(Cl)cc1 (mixture of isomers) [6g]	-8.01
COc1ccc(COc2ccc(/C=C3/C(=O)Nc4ccc(Cl)cc43)cc2OC)cc1 [6i]	-2.09

Consider COc1cc(/C=C2/C(=O)Nc3cc(Cl)ccc32)ccc1O [5c] . Its measured inhibition at 10 µM is 2.41

Consider COc1cc(C=C2C(=O)Nc3ccc(Cl)cc32)ccc1O (mixture of isomers) [5b] . Its measured inhibition at 10 µM is 13.5

Consider COc1cc(C=C2C(=O)Nc3ccc(Cl)cc32)ccc1OCc1ccc(F)cc1 (mixture of isomers) [6h] . Its measured inhibition at 10 µM is -1.98

Consider COc1cc(/C=C2/C(=O)Nc3ccc(Cl)cc32)ccc1OCc1ccccc1 [6f] . Its measured inhibition at 10 µM is -3.74

Consider COc1ccc(COc2ccc(/C=C3/C(=O)Nc4cc(Cl)ccc43)cc2OC)cc1 [6n] . Its measured inhibition at 10 µM is -21.9

Consider COc1cc(/C=C2/C(=O)Nc3cc(Cl)ccc32)ccc1OCc1ccccc1 [6k] . Its measured inhibition at 10 µM is -10.4
